Tested on: 3D7
Protocol: qHTS profiling for inhibitors of Plasmodium falciparum proliferation (AID 504749); further: nearly all actives have a fitted effect of over 60% in size
Applied conditions: P. falciparum in erythrocytes, SYBR Green DNA, 72 h; series mostly up to 28.7 µM
Records with an inconclusive call do not appear. Calls of active or inactive are those of the source. The call rests on the fitted dose curve; in most records, active means well fitted inhibition curve with a large enough effect; inconclusive means small, poorly fitted or top-dose-only effect; inactive means flat fitted curve, though single readings scatter.
Classes used: active, inactive

[
  {
    "Molecule": "COC(c1ccccc1)(c1ccccc1)C(Oc1nc(C)cc(C)n1)C(=O)O (stereo not given)",
    "Answer label": "inactive"
  },
  {
    "Molecule": "Cc1ccc(Nc2ncccc2C(=O)O)cc1C",
    "Answer label": "inactive"
  },
  {
    "Molecule": "CCN(CC)CC(=O)Nc1c(C)cc(C)cc1C",
    "Answer label": "inactive"
  },
  {
    "Molecule": "COC1CC2CCC(C)[C@](O)(O2)C(=O)C(=O)N2CCCCC2C(=O)OC(C(C)CC2CCC(O)C(OC)C2)CC(=O)C(C)/C=C(/C)C(O)C(OC)C(=O)C(C)CC(C)C=CC=C/C=C\\1C (stereo not given in full)",
    "Answer label": "active"
  },
  {
    "Molecule": "Clc1ccc(CS[C@@H](Cn2ccnc2)c2ccc(Cl)cc2Cl)cc1",
    "Answer label": "active"
  },
  {
    "Molecule": "CCCC[C@H]1C(=O)N(c2ccccc2)N(c2ccc(O)cc2)C1=O",
    "Answer label": "inactive"
  },
  {
    "Molecule": "CCCCCOC(=O)Nc1nc(=O)n(C2O[C@H](C)[C@@H](O)[C@@H]2O)cc1F (stereo not given in full)",
    "Answer label": "inactive"
  },
  {
    "Molecule": "NC(CSSCC(N)C(=O)O)C(=O)O (stereo not given)",
    "Answer label": "inactive"
  },
  {
    "Molecule": "Nc1nc(/C(=C/CC(=O)O)C(=O)NC2C(=O)N3C(C(=O)O)=CCSC23)cs1 (stereo not given)",
    "Answer label": "inactive"
  },
  {
    "Molecule": "CC1CCC(C(C)C)C(O)C1 (stereo not given)",
    "Answer label": "inactive"
  }
]

###

# activity change, negative = inhibition listing for each entry below
Protocol: AP1 Signaling Pathway (AID 357);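 further: ME-180 reporter cells stimulated with EGF at its EC50 level; on the % scale 0 is the no-effect control and ±100 the full control effect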
Applied conditions: ME-180 (cervical carcinoma) AP-1-bla reporter, EGF-induced, beta-lactamase ratio, 5 h; at 17.2 µM (top of the series) unless noted
Inconclusive results are not listed.
Endpoint name: activity change, negative = inhibition (%)

[
  {
    "Compound": "Cc1cc(=O)oc(C)c1C(=O)NCCNC(=O)c1c(C)cc(=O)oc1C",
    "Endpoint name": "activity change, negative = inhibition",
    "Scale unit": "%",
    "Numeric readout": 7.25
  },
  {
    "Compound": "COC(=O)CN1C2(C#N)CCCCC2CC2CCCCC21C#N (stereo unspecified)",
    "Endpoint name": "activity change, negative = inhibition",
    "Scale unit": "%",
    "Numeric readout": 2.79
  },
  {
    "Compound": "CC(C)CNC(=O)c1c(N)n(/N=C/c2ccccn2)c2nc3ccccc3nc12",
    "Endpoint name": "activity change, negative = inhibition",
    "Scale unit": "%",
    "Numeric readout": 14.9
  },
  {
    "Compound": "Cc1ccc(NC(=O)Cn2nc(C)c3ccccc3c2=O)cc1",
    "Endpoint name": "activity change, negative = inhibition",
    "Scale unit": "%",
    "Numeric readout": 14.3
  },
  {
    "Compound": "CC(=O)c1cccc(N=C2NC(=O)C(CO)(CO)S2)c1",
    "Endpoint name": "activity change, negative = inhibition",
    "Scale unit": "%",
    "Numeric readout": 3.54
  },
  {
    "Compound": "Cc1ccc(-c2nn(CCC(=O)NCC3CCCO3)c(=O)c3ccccc23)cc1 (stereo unspecified)",
    "Endpoint name": "activity change, negative = inhibition",
    "Scale unit": "%",
    "Numeric readout": -6.92
  },
  {
    "Compound": "CCCC(=O)N1CCN(c2nc(CC(C)C)c3c(c2C#N)CCC3)CC1",
    "Endpoint name": "activity change, negative = inhibition",
    "Scale unit": "%",
    "Numeric readout": -11.7
  },
  {
    "Compound": "CCn1c(-c2ccco2)n[nH]c1=S",
    "Endpoint name": "activity change, negative = inhibition",
    "Scale unit": "%",
    "Numeric readout": 14
  },
  {
    "Compound": "CCOc1ccc(N=C(NC#N)SCC(=O)NC2CC2)cc1",
    "Endpoint name": "activity change, negative = inhibition",
    "Scale unit": "%",
    "Numeric readout": -3.71
  },
  {
    "Compound": "Cc1ccc(-c2ccc(/C=N/c3ncn[nH]3)o2)cc1Cl",
    "Endpoint name": "activity change, negative = inhibition",
    "Scale unit": "%",
    "Numeric readout": 1.81
  },
  {
    "Compound": "CC(=O)Nc1ccc(Oc2ccc3nc(C)[nH]c3c2)cc1",
    "Endpoint name": "activity change, negative = inhibition",
    "Scale unit": "%",
    "Numeric readout": -4.84
  }
]

###

Protocol: Cell Viability - N2a (AID 540);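 further: cells exposed to compound for 40 h at 37 °C; plate controls were DMSO alone for no effect and tamoxifen control for full effect; nearly all actives have a fitted effect of over 45% in size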
Applied conditions: N2a mouse neuroblastoma cell viability; at 92.2 µM (top of the series)
Results filed as inconclusive are left out. Active and inactive are the calls of the source. The call rests on the fitted dose curve; in most records, active means well fitted cell-killing curve with a large enough effect; inconclusive means small, poorly fitted or top-dose-only effect; inactive means flat fitted curve, though single readings scatter.

[
  {
    "Compound": "C=CC(=O)OCCOCCOC(=O)C=C",
    "activity change, negative = cytotoxicity": "-114% (active)"
  },
  {
    "Compound": "Oc1ccc2cc(SSc3ccc4cc(O)ccc4c3)ccc2c1",
    "activity change, negative = cytotoxicity": "-111% (active)"
  },
  {
    "Compound": "C/C=C1\\C(=O)C[C@H]2[C@@H]3CCC4=CC(=O)CC[C@]4(C)[C@H]3CC[C@]12C",
    "activity change, negative = cytotoxicity": "-114% (active)"
  },
  {
    "Compound": "O=C1OC(O)C(C(Cl)Cl)=C1Cl (centres undefined)",
    "activity change, negative = cytotoxicity": "-101% (active)"
  }
]

###

Protocol: NFAT Signaling Pathway (AID 444);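 further: carbachol stimulus at about its EC50 of 1 µM final; on the % scale 0 is the no-effect control and ±100 the full control effect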
Applied conditions: Jurkat NFAT-bla M1, carbachol, beta-lactamase ratio, 5 h; at 17.2 µM (top of the series) unless noted
Description: NCGC Assay Overview: The nuclear factor of activated T cells (NFAT) family of transcription factors has been found primarily in most immune system cells and some other non-immune cells. NFAT plays the immunomodulatory role, primarily in T-cell activation and differentiation. […] NCGC Assay Protocol Summary: The cells were prepared in RPMI 1640 medium containing 0.1% dialyzed FBS and 25 mM HEPES at 1.6 x 10^6cell/ml. […] The %Activity was determined from the ratio of 460nm/530nm. […]
Results filed as inconclusive are left out.
Endpoint name: activity change, negative = inhibition (%)

[
  {
    "Compound": "Oc1ccccc1-c1nc(NCCN2CCOCC2)c2ccccc2n1",
    "Endpoint name": "activity change, negative = inhibition",
    "Scale unit": "%",
    "Numeric readout": 25.8
  },
  {
    "Compound": "c1coc(CNc2ncnc3ccccc23)c1",
    "Endpoint name": "activity change, negative = inhibition",
    "Scale unit": "%",
    "Numeric readout": -14.7
  },
  {
    "Compound": "CSCCC(CO)NC(=O)OCc1ccccc1 (configuration not stated)",
    "Endpoint name": "activity change, negative = inhibition",
    "Scale unit": "%",
    "Numeric readout": -0.945
  },
  {
    "Compound": "COC(=O)C(NC(C)=O)(Nc1ccccc1)C(=O)OC",
    "Endpoint name": "activity change, negative = inhibition",
    "Scale unit": "%",
    "Numeric readout": -1.66
  },
  {
    "Compound": "CCN(CC)CCOC(=O)C1(c2ccc(OC)c(OC)c2)CCCC1",
    "Endpoint name": "activity change, negative = inhibition",
    "Scale unit": "%",
    "Numeric readout": -82.2
  },
  {
    "Compound": "COc1cccc(Cn2c(NCc3ccco3)nc3c2c(=O)n(C)c(=O)n3C)c1",
    "Endpoint name": "activity change, negative = inhibition",
    "Scale unit": "%",
    "Numeric readout": -5
  },
  {
    "Compound": "COc1ccccc1N(O)C1CC(=O)N(c2ccc(F)cc2)C1=O (configuration not stated)",
    "Endpoint name": "activity change, negative = inhibition",
    "Scale unit": "%",
    "Numeric readout": -3.85
  },
  {
    "Compound": "COc1ccc(-c2cc(=O)[nH]c(=O)[nH]2)cc1",
    "Endpoint name": "activity change, negative = inhibition",
    "Scale unit": "%",
    "Numeric readout": -4.97
  },
  {
    "Compound": "Cc1cccc(OCC(=O)N2CCC(N3CCOCC3)CC2)c1",
    "Endpoint name": "activity change, negative = inhibition",
    "Scale unit": "%",
    "Numeric readout": 6.61
  },
  {
    "Compound": "COCCCN1C(=O)C(O)=C(C(=O)c2ccco2)C1c1ccc(Br)cc1 (configuration not stated)",
    "Endpoint name": "activity change, negative = inhibition",
    "Scale unit": "%",
    "Numeric readout": 11.4
  },
  {
    "Compound": "NC(=O)CSc1c[nH]c2ccccc12",
    "Endpoint name": "activity change, negative = inhibition",
    "Scale unit": "%",
    "Numeric readout": 0.963
  },
  {
    "Compound": "COc1ccc(CNC(=O)[C@H](C)NC(=O)C2CCN(S(=O)(=O)c3ccc(C)cc3)CC2)cc1",
    "Endpoint name": "activity change, negative = inhibition",
    "Scale unit": "%",
    "Numeric readout": 0.0617
  }
]

Data credit: PubChem BioAssay (NCATS)
